B1: minF1; the commonest letter at each place (parent)
chain: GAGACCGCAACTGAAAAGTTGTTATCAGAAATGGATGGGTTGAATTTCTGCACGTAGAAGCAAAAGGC

# Variants of: B1
# procedure summary: fraction ligated after 30 min (ligated reads / total reads); higher = more ligase activity
# experimental parameters: with F1*subA RNA substrate (template-directed ligation), 42 °C
Tag: True if measured fraction ligated is not below 0.03, False if it is.

(Q) Test whether the variant GAGACCGCAACTGAAAAGTTGTCATCAGAAATGGATGGGTTGAGTTTCTGCACGTAGAAGCAAAAGGC records fraction ligated of 0.03 or higher.
(A) True

(Q) Hi, just wondering whether GAGACCGCAACTGAAAAGTTGTTATCAGAAATGCATGGGTTGATTTTCTGCACGTAGAAGCAAAAGGC shows fraction ligated of 0.03 or higher.
(A) False

(Q) Identify whether the reported fraction ligated of the following variant is 0.03 or greater: GAGACCGCAACTGAAAAGTTGTTATAAGAAATTGATGGGTTGAATTTCTGCACGTAGAAGCAAAAGGC
(A) False

(Q) Entry GAGACCGCAACTGAAAAGTTGTTATCTGAAATAGATGGGTTGAATTTCTGCACGTAGAAGCAAAAGGC : is its fraction ligated no less than 0.03?
(A) True

(Q) hey, is fraction ligated for this one >= 0.03? GAGACCGCAACTGAAAAGTTGTTATTAGAGATGGATGGGTTGAATTTCTGCACGTAGAAGCAAAAGGC
(A) True

(Q) Quick check: does GAGACCGCAACTGAAAAGTTGTTACCAGAAATGGATCGGTTGAATTTCTGCACGTAGAAGCAAAAGGC have fraction ligated greater than or equal to 0.03?
(A) False

(Q) Textbook exercise: given the entry GAGACCGCAACTGAAAAGTTGTTATCAAAAATGGATTGGTTGAATTTCTGCACGTAGAAGCAAAAGGC , state whether its fraction ligated is greater than or equal to 0.03.
(A) False

(Q) Check this variant for fraction ligated at or above 0.03: GAGACCGCAACTGAAAAGTTGTTATCAGAAATGGATGGGTTCCATTTCTGCACGTAGAAGCAAAAGGC
(A) False

(Q) Record GAGACCGCAACTGAAAAGTTGTTACCAGAAACGGATGGGTTGAATTTCTGCACGTAGAAGCAAAAGGC ; criterion: fraction ligated no lower than 0.03. Met?
(A) False

(Q) Textbook exercise: given the entry GAGACCGCAACTGAAAAGTTGTTATCAGAAATGGATGGGTTGTTTTTCTGCACGTAGAAGCAAAAGGC , state whether its fraction ligated is greater than or equal to 0.03.
(A) False

(Q) Reported fraction ligated reaches at least 0.03 for GAGACCGCAACTGAAAAGTTGTTTTCCGAAATGGATGGGTTGAATTTCTGCACGTAGAAGCAAAAGGC ?
(A) True

(Q) fraction ligated >= 0.03 for GAGACCGCAACTGAAAAGTTGTTATCAGATATGGATGGGTTGATTTTCTGCACGTAGAAGCAAAAGGC ?
(A) True

(Q) Please indicate if the recorded fraction ligated for GAGACCGCAACTGAAAAGTTGTTATGAGAAATGGACGGGTTGAATTTCTGCACGTAGAAGCAAAAGGC meets or exceeds 0.03.
(A) False

(Q) Could you please find out whether GAGACCGCAACTGAAAAGTTGTTATCAGAACCGGATGGGTTGAATTTCTGCACGTAGAAGCAAAAGGC has fraction ligated that meets 0.03 or exceeds it?
(A) False

(Q) Hello, I need to know if GAGACCGCAACTGAAAAGTTGTTATCAGGAATGGATGGGTTGTATTTCTGCACGTAGAAGCAAAAGGC has measured fraction ligated not below 0.03. Thanks!
(A) True

(Q) Test whether the variant GAGACCGCAACTGAAAAGTTGTTATCTGAAATGGATGGGTTGTATTTCTGCACGTAGAAGCAAAAGGC records fraction ligated of 0.03 or higher.
(A) True

(Q) Check if fraction ligated >= 0.03 (inclusive). Item: GAGACCGCAACTGAAAAGTTGTTACTAGAAATGGATGGGTTGAATTTCTGCACGTAGAAGCAAAAGGC
(A) True

(Q) Given the entry GAGACCGCAACTGAAAAGTTGTTATCAGAAGTGCATGGGTTGAATTTCTGCACGTAGAAGCAAAAGGC , answer whether its fraction ligated meets or surpasses 0.03.
(A) False

(Q) Dear colleague, could you confirm whether GAGACCGCAACTGAAAAGTTGTTATCAGAAGTGGAAGGGTTGAATTTCTGCACGTAGAAGCAAAAGGC has fraction ligated at or above 0.03?
(A) True

(Q) Hi, just wondering whether GAGACCGCAACTGAAAAGTTGTTAACAGCAATGGATGGGTTGAATTTCTGCACGTAGAAGCAAAAGGC shows fraction ligated of 0.03 or higher.
(A) False

(Q) Dear colleague, could you confirm whether GAGACCGCAACTGAAAAGTTGTTAGCAGAAAGGGATGGGTTGAATTTCTGCACGTAGAAGCAAAAGGC has fraction ligated at or above 0.03?
(A) False

(Q) API: above_or_equal(metric=fraction ligated, cutoff=0.03) for item GAGACCGCAACTGAAAAGTTGTTCTCAGAAATGGATAGGTTGAATTTCTGCACGTAGAAGCAAAAGGC
(A) False

(Q) hey, is fraction ligated for this one >= 0.03? GAGACCGCAACTGAAAAGTTGTTATCAGAAATGGTTGGGTTCAATTTCTGCACGTAGAAGCAAAAGGC
(A) False

(Q) Determine whether this variant has fraction ligated no lower than 0.03: GAGACCGCAACTGAAAAGTTGTGATCAGAAATGGATTGGTTGAATTTCTGCACGTAGAAGCAAAAGGC
(A) False

(Q) // inclusive: fraction ligated at least 0.03? input: GAGACCGCAACTGAAAAGTTGTGATCAGAAATAGATGGGTTGAATTTCTGCACGTAGAAGCAAAAGGC
(A) True

(Q) Test whether the variant GAGACCGCAACTGAAAAGTTGTTATCAGAAAAGGACGGGTTGAATTTCTGCACGTAGAAGCAAAAGGC records fraction ligated of 0.03 or higher.
(A) False

(Q) For this variant, is measured fraction ligated 0.03 or higher? GAGACCGCAACTGAAAAGTTGTTAACAGAAATGGCTGGGTTGAATTTCTGCACGTAGAAGCAAAAGGC
(A) False

(Q) Record GAGACCGCAACTGAAAAGTTGTCATCAGAAATGGATGGGTTAAATTTCTGCACGTAGAAGCAAAAGGC ; criterion: fraction ligated no lower than 0.03. Met?
(A) False

(Q) API: above_or_equal(metric=fraction ligated, cutoff=0.03) for item GAGACCGCAACTGAAAAGTTGTTATCAGAAGGGGATGGGTTGAATTTCTGCACGTAGAAGCAAAAGGC
(A) False

(Q) State whether the measured fraction ligated reaches 0.03, counting equality as reaching it, for GAGACCGCAACTGAAAAGTTGTTATCAGACATGGACGGGTTGAATTTCTGCACGTAGAAGCAAAAGGC
(A) False

(Q) Check this variant for fraction ligated at or above 0.03: GAGACCGCAACTGAAAAGTTGTTATGAGAAATGGATAGGTTGAATTTCTGCACGTAGAAGCAAAAGGC
(A) False

(Q) Would you say GAGACCGCAACTGAAAAGTTGTCATCAGACATGGATGGGTTGAATTTCTGCACGTAGAAGCAAAAGGC shows fraction ligated at minimum 0.03?
(A) True

(Q) Answer whether fraction ligated of GAGACCGCAACTGAAAAGTTGTTATCAGAAATGGACGGGTTGACTTTCTGCACGTAGAAGCAAAAGGC is greater than or equal to 0.03.
(A) False

(Q) Could you please find out whether GAGACCGCAACTGAAAAGTTGTTATCAGTAATTGATGGGTTGAATTTCTGCACGTAGAAGCAAAAGGC has fraction ligated that meets 0.03 or exceeds it?
(A) True

(Q) Does fraction ligated meet or surpass 0.03 for GAGACCGCAACTGAAAAGTTGTTATCAGAAATGGATGGGTTCCGTTTCTGCACGTAGAAGCAAAAGGC ?
(A) False

(Q) hey, is fraction ligated for this one >= 0.03? GAGACCGCAACTGAAAAGTTGTTATCAGACATGGATGGGTTGAATTTCTGCACGTAGAAGCAAAAGGC
(A) True

(Q) Record GAGACCGCAACTGAAAAGTTGTTATCAGAAATGGACGGGTTAAATTTCTGCACGTAGAAGCAAAAGGC ; criterion: fraction ligated no lower than 0.03. Met?
(A) False

(Q) Check if fraction ligated >= 0.03 (inclusive). Item: GAGACCGCAACTGAAAAGTTGTTATAGGAAATGGATGGGTTGAATTTCTGCACGTAGAAGCAAAAGGC
(A) True

(Q) Quick check, fraction ligated >= 0.03? GAGACCGCAACTGAAAAGTTGTTATCAGACCTGGATGGGTTGAATTTCTGCACGTAGAAGCAAAAGGC
(A) True

(Q) Check this variant for fraction ligated at or above 0.03: GAGACCGCAACTGAAAAGTTGTAATCAGAAATGGAGGGGTTGAATTTCTGCACGTAGAAGCAAAAGGC
(A) True

(Q) Item GAGACCGCAACTGAAAAGTTGTTTGCAGAAATGGATGGGTTGAATTTCTGCACGTAGAAGCAAAAGGC with fraction ligated of 0.03 or above?
(A) False

(Q) hey, is fraction ligated for this one >= 0.03? GAGACCGCAACTGAAAAGTTGTTATCCGAAATAGATGGGTTGAATTTCTGCACGTAGAAGCAAAAGGC
(A) True

(Q) Tell me whether fraction ligated is at least 0.03 here: GAGACCGCAACTGAAAAGTTGTTATCAGAAATAGCTGGGTTGAATTTCTGCACGTAGAAGCAAAAGGC
(A) False

(Q) Does fraction ligated meet or surpass 0.03 for GAGACCGCAACTGAAAAGTTGTTATCAGAAATGAATGGGTTCAATTTCTGCACGTAGAAGCAAAAGGC ?
(A) False

(Q) Determine whether this variant has fraction ligated no lower than 0.03: GAGACCGCAACTGAAAAGTTGTTATCAGAAATGGAAGGGTTGCATTTCTGCACGTAGAAGCAAAAGGC
(A) False

(Q) Reported fraction ligated at or above 0.03? GAGACCGCAACTGAAAAGTTGTTATCAGGAATGGATGGGTTGATTTTCTGCACGTAGAAGCAAAAGGC
(A) True

(Q) API: above_or_equal(metric=fraction ligated, cutoff=0.03) for item GAGACCGCAACTGAAAAGTTGTTATCAGACGTGGATGGGTTGAATTTCTGCACGTAGAAGCAAAAGGC
(A) True

(Q) hey, is fraction ligated for this one >= 0.03? GAGACCGCAACTGAAAAGTTGTTTTCAGAACTGGATGGGTTGAATTTCTGCACGTAGAAGCAAAAGGC
(A) False

(Q) Confirm if fraction ligated reported for the variant GAGACCGCAACTGAAAAGTTGTAATCCGAAATGGATGGGTTGAATTTCTGCACGTAGAAGCAAAAGGC is 0.03 or above.
(A) True

(Q) Check if fraction ligated >= 0.03 (inclusive). Item: GAGACCGCAACTGAAAAGTTGTTATCAGCACTGGATGGGTTGAATTTCTGCACGTAGAAGCAAAAGGC
(A) True

(Q) Could you verify whether the entry GAGACCGCAACTGAAAAGTTGTTATCGGAAATGGATGGGTTCAATTTCTGCACGTAGAAGCAAAAGGC shows fraction ligated of no less than 0.03?
(A) False

(Q) Tell me whether fraction ligated is at least 0.03 here: GAGACCGCAACTGAAAAGTTGTTATCAGTAATGGATTGGTTGAATTTCTGCACGTAGAAGCAAAAGGC
(A) False

(Q) Does the reported fraction ligated for GAGACCGCAACTGAAAAGTTGTTATCAGAAATTGATCGGTTGAATTTCTGCACGTAGAAGCAAAAGGC fall at or above the 0.03 mark?
(A) False

(Q) Check this variant for fraction ligated at or above 0.03: GAGACCGCAACTGAAAAGTTGTTATCAAAAACGGATGGGTTGAATTTCTGCACGTAGAAGCAAAAGGC
(A) False

(Q) Given GAGACCGCAACTGAAAAGTTGTTATCAGAATTGGATGGGTTGTATTTCTGCACGTAGAAGCAAAAGGC , state whether its fraction ligated is at least 0.03.
(A) True

(Q) Reported fraction ligated reaches at least 0.03 for GAGACCGCAACTGAAAAGTTGTTATCAGAAATGGATAGGTTGCATTTCTGCACGTAGAAGCAAAAGGC ?
(A) False

(Q) Identify whether the reported fraction ligated of the following variant is 0.03 or greater: GAGACCGCAACTGAAAAGTTGTTAGCAGAAATGGATGGGTTAAATTTCTGCACGTAGAAGCAAAAGGC
(A) False

(Q) Is reported fraction ligated greater than or equal to 0.03 here: GAGACCGCAACTGAAAAGTTGTTATCAGAAATGAATGGGTTAAATTTCTGCACGTAGAAGCAAAAGGC
(A) False

(Q) Determine whether this variant has fraction ligated no lower than 0.03: GAGACCGCAACTGAAAAGTTGTTCTCAGACATGGATGGGTTGAATTTCTGCACGTAGAAGCAAAAGGC
(A) True

(Q) Does fraction ligated meet or surpass 0.03 for GAGACCGCAACTGAAAAGTTGTTATCAGAAACGGAAGGGTTGAATTTCTGCACGTAGAAGCAAAAGGC ?
(A) False

(Q) Can GAGACCGCAACTGAAAAGTTGTTATCGGAAATGGAGGGGTTGAATTTCTGCACGTAGAAGCAAAAGGC be said to have fraction ligated at or above 0.03?
(A) True

(Q) Confirm if fraction ligated reported for the variant GAGACCGCAACTGAAAAGTTGTTATCAGCAATGGATGGGTTGAATTTCTGCACGTAGAAGCAAAAGGC is 0.03 or above.
(A) True

(Q) Is it the case that GAGACCGCAACTGAAAAGTTGTTATCAGAAATGGTTGGGTTGTATTTCTGCACGTAGAAGCAAAAGGC has fraction ligated reaching or exceeding 0.03?
(A) False

(Q) Reported fraction ligated at or above 0.03? GAGACCGCAACTGAAAAGTTGTTATCAGTAATGCATGGGTTGAATTTCTGCACGTAGAAGCAAAAGGC
(A) False

(Q) Record GAGACCGCAACTGAAAAGTTGTTCTTAGAAATGGATGGGTTGAATTTCTGCACGTAGAAGCAAAAGGC ; criterion: fraction ligated no lower than 0.03. Met?
(A) True

(Q) Does the variant GAGACCGCAACTGAAAAGTTGTTTTCAGCAATGGATGGGTTGAATTTCTGCACGTAGAAGCAAAAGGC have recorded fraction ligated that is 0.03 or more?
(A) False

(Q) Quick check, fraction ligated >= 0.03? GAGACCGCAACTGAAAAGTTGTTATCATCAATGGATGGGTTGAATTTCTGCACGTAGAAGCAAAAGGC
(A) True
